These entries and their values trace back to patent US9382295B2.

System Name: UniProt P30405
Sequence (P30405 30-207): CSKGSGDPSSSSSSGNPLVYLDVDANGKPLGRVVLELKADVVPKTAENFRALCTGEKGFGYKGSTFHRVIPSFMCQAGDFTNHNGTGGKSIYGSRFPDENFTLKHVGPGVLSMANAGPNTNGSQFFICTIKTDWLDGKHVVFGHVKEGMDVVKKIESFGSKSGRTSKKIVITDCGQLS
Method Notes: Protease-free PPIase assay, cyclophilin D
Assay type: biochemical
Numbered stars: 1 amine (or outer) side, 2 acyl side, 3 side chain; on linkers, the order of the positions; unused ones are H or OH. Square brackets hold non-standard residues; d marks the D form. Peptide text beside a SMILES is read from it. X10 = Cc1cccc(/C=C/C[C@@H](C)[C@@H](O)[C@H](C(=O)[*:2])N(C)[*:1])n1; X30 = C[C@H](CCN(C)Cc1nnn[nH]1)[C@@H](O)[C@H](C(=O)[*:2])N(C)[*:1]; X32 = CC(=O)N(CC[C@@H](C)[C@@H](O)[C@H](C(=O)[*:2])N(C)[*:1])C(C)C; X21 = C[C@H](CCN(C)C1CCOCC1)[C@@H](O)[C@H](C(=O)[*:2])N(C)[*:1]; X8 = C[C@H](CCN1CCC[C@H]1CO)[C@@H](O)[C@H](C(=O)[*:2])N(C)[*:1]; X34 = C[C@H](CCN1CCN(C)CC1)[C@@H](O)[C@H](C(=O)[*:2])N(C)[*:1]; X14 = C[C@H](CCCc1ncccn1)[C@@H](O)[C@H](C(=O)[*:2])N(C)[*:1]; d(aThr) = C[C@@H](O)[C@@H](N)C(=O)O; NMeL = CN[C@@H](CC(C)C)C(=O)O; dNMeL = CN[C@H](CC(C)C)C(=O)O; dNMeV = CN[C@@H](C(=O)O)C(C)C; Hiv = CC(C)[C@H](O)C(=O)O; dAbu = CC[C@@H](N)C(=O)O; Sar = CNCC(=O)O
Each entry below lists one item and its recorded Ki value.

The following compounds have reported results that may help.
CC[C@H]1NC(=O)[C@@H]([C@H](O)[C@H](C)C/C=C/c2cccc(C)n2)N(C)C(=O)[C@@H](C(C)C)N(C)C(=O)[C@@H](CC(C)C)NC(=O)[C@@H](CC(C)C)N(C)C(=O)[C@H](C(C)C)OC(=O)[C@@H](C)NC(=O)[C@@H](CC(C)C)N(C)C(=O)[C@@H](CC(C)C)NC(=O)[C@H](CC(C)C)N(C)C(=O)CN(C)C1=O [Example 19] (cyclo([Hiv][dNMeL][dL][dNMeV][X10][dAbu][Sar][NMeL][dL][dNMeL][dA])) :: 1 to 25 nM
CC(C)C[C@@H]1C(=O)N[C@H](CC(C)C)C(=O)N(C)[C@H](C(C)C)C(=O)N(C)[C@H]([C@H](O)[C@H](C)CCN2CCC[C@H]2CO)C(=O)N[C@H]([C@@H](C)O)C(=O)N(C)CC(=O)N(C)[C@@H](CC(C)C)C(=O)N[C@H](CC(C)C)C(=O)N(C)[C@H](CC(C)C)C(=O)N[C@H](C)C(=O)O[C@@H](C(C)C)C(=O)N1C [Example 26] (cyclo([Hiv][dNMeL][dL][dNMeV][X8][d(aThr)][Sar][NMeL][dL][dNMeL][dA])) :: 25 to 100 nM
CC(C)C[C@@H]1C(=O)N[C@H](CC(C)C)C(=O)N(C)[C@H](C(C)C)C(=O)N(C)[C@H]([C@H](O)[C@H](C)CCN(C)C2CCOCC2)C(=O)N[C@H]([C@@H](C)O)C(=O)N(C)CC(=O)N(C)[C@@H](CC(C)C)C(=O)N[C@H](CC(C)C)C(=O)N(C)[C@H](CC(C)C)C(=O)N[C@H](C)C(=O)O[C@@H](C(C)C)C(=O)N1C [Example 12] (cyclo([Hiv][dNMeL][dL][dNMeV][X21][d(aThr)][Sar][NMeL][dL][dNMeL][dA])) :: 1 to 25 nM
CC(C)C[C@@H]1C(=O)N[C@H](CC(C)C)C(=O)N(C)[C@H](C(C)C)C(=O)N(C)[C@H]([C@H](O)[C@H](C)CCN2CCN(C)CC2)C(=O)N[C@H]([C@@H](C)O)C(=O)N(C)CC(=O)N(C)[C@@H](CC(C)C)C(=O)N[C@H](CC(C)C)C(=O)N(C)[C@H](CC(C)C)C(=O)N[C@H](C)C(=O)O[C@@H](C(C)C)C(=O)N1C [Example 32] (cyclo([Hiv][dNMeL][dL][dNMeV][X34][d(aThr)][Sar][NMeL][dL][dNMeL][dA])) :: 25 to 100 nM
CO[C@H](C)[C@H]1NC(=O)[C@@H]([C@H](O)[C@H](C)CCN2CCOCC2)N(C)C(=O)[C@@H](C(C)C)N(C)C(=O)[C@@H](CC(C)C)NC(=O)[C@@H](CC(C)C)N(C)C(=O)[C@H](C(C)C)OC(=O)[C@@H](C)NC(=O)[C@@H](CC(C)C)N(C)C(=O)[C@@H](CC(C)C)NC(=O)[C@H](CC(C)C)N(C)C(=O)CN(C)C1=O (stereo in doubt) :: 1 to 25 nM
CC(=O)N(CC[C@@H](C)[C@@H](O)[C@@H]1C(=O)N[C@H]([C@@H](C)O)C(=O)N(C)CC(=O)N(C)[C@@H](CC(C)C)C(=O)N[C@H](CC(C)C)C(=O)N(C)[C@H](CC(C)C)C(=O)N[C@H](C)C(=O)O[C@@H](C(C)C)C(=O)N(C)[C@H](CC(C)C)C(=O)N[C@H](CC(C)C)C(=O)N(C)[C@H](C(C)C)C(=O)N1C)C(C)C [Example 38] (cyclo([Hiv][dNMeL][dL][dNMeV][X32][d(aThr)][Sar][NMeL][dL][dNMeL][dA])) :: 1 to 25 nM
CC(C)C[C@@H]1C(=O)N[C@H](CC(C)C)C(=O)N(C)[C@H](C(C)C)C(=O)N(C)[C@H]([C@H](O)[C@H](C)CCCc2ncccn2)C(=O)N[C@H]([C@@H](C)O)C(=O)N(C)CC(=O)N(C)[C@@H](CC(C)C)C(=O)N[C@H](CC(C)C)C(=O)N(C)[C@H](CC(C)C)C(=O)N[C@H](C)C(=O)O[C@@H](C(C)C)C(=O)N1C [Example 16] (cyclo([Hiv][dNMeL][dL][dNMeV][X14][d(aThr)][Sar][NMeL][dL][dNMeL][dA])) :: 1 to 25 nM
Cc1cccc(/C=C/C[C@@H](C)[C@@H](O)[C@@H]2C(=O)N[C@H]([C@@H](C)O)C(=O)N(C)CC(=O)N(C)[C@@H](CC(C)C)C(=O)N[C@H](CC(C)C)C(=O)N(C)[C@H](CC(C)C)C(=O)N[C@H](C)C(=O)O[C@@H](C(C)C)C(=O)N(C)[C@H](CC(C)C)C(=O)N[C@H](CC(C)C)C(=O)N(C)[C@H](C(C)C)C(=O)N2C)n1 [Example 14] (cyclo([Hiv][dNMeL][dL][dNMeV][X10][d(aThr)][Sar][NMeL][dL][dNMeL][dA])) :: 1 to 25 nM

Please examine the following record next.
Tell me measured Ki for CC(C)C[C@@H]1C(=O)N[C@H](CC(C)C)C(=O)N(C)[C@H](C(C)C)C(=O)N(C)[C@H]([C@H](O)[C@H](C)CCN(C)Cc2nnn[nH]2)C(=O)N[C@H]([C@@H](C)O)C(=O)N(C)CC(=O)N(C)[C@@H](CC(C)C)C(=O)N[C@H](CC(C)C)C(=O)N(C)[C@H](CC(C)C)C(=O)N[C@H](C)C(=O)O[C@@H](C(C)C)C(=O)N1C [Example 6] (cyclo([Hiv][dNMeL][dL][dNMeV][X30][d(aThr)][Sar][NMeL][dL][dNMeL][dA])) please.
1 to 25 nM
